# tgt: UniProtKB P08172
# Sequence (P08172 1-466): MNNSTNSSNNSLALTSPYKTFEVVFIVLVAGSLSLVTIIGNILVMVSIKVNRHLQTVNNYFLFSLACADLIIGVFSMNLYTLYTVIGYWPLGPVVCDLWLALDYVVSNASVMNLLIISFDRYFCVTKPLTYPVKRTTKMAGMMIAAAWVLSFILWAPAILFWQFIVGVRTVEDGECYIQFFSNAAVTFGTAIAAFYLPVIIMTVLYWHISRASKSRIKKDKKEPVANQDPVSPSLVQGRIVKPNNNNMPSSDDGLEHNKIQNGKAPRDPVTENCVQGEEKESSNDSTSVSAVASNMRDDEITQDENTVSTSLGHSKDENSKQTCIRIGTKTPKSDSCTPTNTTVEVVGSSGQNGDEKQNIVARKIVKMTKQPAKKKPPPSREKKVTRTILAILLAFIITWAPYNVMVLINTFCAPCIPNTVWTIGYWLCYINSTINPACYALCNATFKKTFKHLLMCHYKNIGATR
# experimentalProtocol: Alphascreen Surefire phospho-ERK1/2 functional assay, M2
# runConditions: CHO, read-out: % Emax cf. ACh, M2, CHO cells stably expressing human M2; relative to ACh
observedProperty: Emax (%)

Below: 2 compounds and their reported Emax.
{"compound": "CCOC(=O)N1CCC2(CC(N3CCC(c4nc(Cl)c[nH]4)CC3)C2)C1 (single isomer, unassigned) [1-2 Isomer 2]", "tgt": "UniProtKB P08172", "Emax (%)": 6}
{"compound": "CCOC(=O)N1CCC2(CC(N3CCC([C@H]4CCCN4C(=O)OC)CC3)C2)C1 (single isomer, unassigned) [2-13 Isomer 2]", "tgt": "UniProtKB P08172", "Emax (%)": 7}

1: CCOC(=O)N1CCC2(CC(N3CCC([C@@H]4CCCN4C(=O)OCc4ccccn4)CC3)C2)C1 (single isomer, unassigned) [2-64 Isomer 2]
2: CCOC(=O)N1CCC2(CC(N3CCC([C@@H]4CCCN4C(=O)OCC(F)(F)F)CC3)C2)C1 (single isomer, unassigned) [2-48 Isomer 2]
3: CCOC(=O)N1CCC2(CC(N3CCC(N4CCC[C@]4(C)C(=O)OC)CC3)C2)C1 (single isomer, unassigned) [2-95 Isomer 2]
IN: Arrange these 3 compounds in increasing order of Emax. The response must list the labels following the requested ordering.
OUT: 2, 1, 3
